test.system: human recombinant GST-PAK1-KD protein (Homo sapiens)
Construct: residues #249-545 of human PAK1, UniProtKP/Swiss Q13153; His6 (N); made in house; host or cells: Sf9 insect cells, pAcGP67 baculovirus expression vector
Sequence (Q13153 249-545): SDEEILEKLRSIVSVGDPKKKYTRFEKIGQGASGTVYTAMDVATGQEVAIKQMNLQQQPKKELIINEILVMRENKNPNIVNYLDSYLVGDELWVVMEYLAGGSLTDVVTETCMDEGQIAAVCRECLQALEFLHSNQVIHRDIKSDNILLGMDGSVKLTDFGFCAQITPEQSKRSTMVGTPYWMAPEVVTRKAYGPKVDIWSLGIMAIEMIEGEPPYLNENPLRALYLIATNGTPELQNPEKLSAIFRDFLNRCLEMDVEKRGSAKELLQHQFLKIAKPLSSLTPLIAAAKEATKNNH
method.notes: GST-PAK1-KD (kinase domain) biochemical assay, microfluidic mobility shift
run.conditions: Table II, PAK1 Ki class; read-out: Ki
Here, each record is paired with measured Ki data.

For orientation, consider the following solved cases.
[[record]]
substance_smiles = "CCc1cc(Nc2ccnc(NCc3cc(F)cc4[nH]ncc34)n2)n[nH]1"
obs_value = "50 to 250 nM"

[[record]]
substance_smiles = "Cc1cc(Nc2ccnc(N(C)Cc3ccc4[nH]cnc4c3Cl)n2)n[nH]1"
obs_value = "< 50 nM"

[[record]]
substance_smiles = "CN(C)CCN(Cc1ccc2[nH]cnc2c1)c1nccc(Nc2cc(C3CC3)[nH]n2)n1"
obs_value = "50 to 250 nM"

[[record]]
substance_smiles = "CCN(Cc1cc(F)cc2[nH]ncc12)c1ncc(F)c(Nc2cc(C3CC3)[nH]n2)n1"
obs_value = "< 50 nM"

[[record]]
substance_smiles = "CCN(Cc1ccc2[nH]cnc2c1Cl)c1nccc(Nc2cc(C(C)C)[nH]n2)n1"
obs_value = "< 50 nM"

[[record]]
substance_smiles = "Fc1cnc(NCc2cc(Cl)cc3[nH]cnc23)nc1Nc1cc(C2CC2)[nH]n1"
obs_value = "< 50 nM"

[[record]]
substance_smiles = "CC(C)N(Cc1ccc2[nH]cnc2c1)c1nccc(Nc2cc(C3CC3)[nH]n2)n1"
obs_value = "< 50 nM"

[[record]]
substance_smiles = "COc1cc(CNc2nccc(Nc3cc(C4CC4)[nH]n3)n2)c2cn[nH]c2c1"
obs_value = "< 50 nM"


Qu. Look up Ki of c1cc(CNc2nccc(Nc3cc(C4COC4)[nH]n3)n2)c2cc[nH]c2c1 and report it.
Ans. 50 to 250 nM

Qu. Look up Ki of CCc1cc(Nc2nc(N(C)Cc3ccc4[nH]cnc4c3Cl)ncc2F)n[nH]1 and report it.
Ans. 250 to 1000 nM

Qu. Look up Ki of CN(Cc1ccc2[nH]cnc2c1Cl)c1nccc(Nc2cc(C(F)F)[nH]n2)n1 and report it.
Ans. < 50 nM

Qu. Look up Ki of c1cncc(CN(Cc2cccc3[nH]ccc23)c2nccc(Nc3cc(C4CC4)[nH]n3)n2)c1 and report it.
Ans. 50 to 250 nM

Qu. Look up Ki of Fc1cnc(NCc2cc(C(F)(F)F)cc3[nH]ncc23)nc1Nc1cc(C2CC2)[nH]n1 and report it.
Ans. 250 to 1000 nM

Qu. Look up Ki of CN(C)CCN(Cc1cc(F)cc2[nH]ncc12)c1nccc(Nc2cc([C@@H]3C[C@@H]3F)[nH]n2)n1 and report it.
Ans. < 50 nM

Qu. Look up Ki of COc1cc(Nc2ccnc(N(C)Cc3ccc4[nH]cnc4c3Cl)n2)n[nH]1 and report it.
Ans. 50 to 250 nM

Qu. Look up Ki of c1cc(Nc2cc(C3CC3)[nH]n2)nc(N(Cc2ccc3[nH]cnc3c2)C2CC2)n1 and report it.
Ans. < 50 nM

Qu. Look up Ki of CN(Cc1ccc2[nH]cnc2c1Cl)c1nccc(Nc2cc(OCc3ccccn3)[nH]n2)n1 and report it.
Ans. 50 to 250 nM

Qu. Look up Ki of Fc1cc(CNc2ncc(F)c(Nc3cc([C@@H]4CC4(F)F)[nH]n3)n2)c2cn[nH]c2c1 and report it.
Ans. 50 to 250 nM
